# ASSAY_REMARKS: recombinant UMI read abundance after kanamycin selection (control-corrected) (log10(CPM+1)); higher = more efficient recombination; extreme values may be limits of the assay; sequences stand for … in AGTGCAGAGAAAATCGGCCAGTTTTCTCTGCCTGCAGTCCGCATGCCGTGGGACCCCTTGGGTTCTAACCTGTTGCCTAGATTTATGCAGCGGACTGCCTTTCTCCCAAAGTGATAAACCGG…AGGTTGGTTTCACT; site = the 11-nt donor
Criterion: recombinant UMI read abundance (log10) meeting or surpassing 0.3. Met: satisfied. Not met: not satisfied.

AGGGAGACATGGACCGGTTTTCCCGGTAATCCGTATTTGCA (site AGGAAGACTTG); satisfied
CACCCCTCATGGACCGGTTTTCCCGGTAATCCGTATTTGCC (site CACACCTCTGG); not satisfied
ATGAAGACATGGACCGGTTTTCCCGGTAATCCGTATTTGCT (site ATGAAGACTAG); satisfied
GGCAGTGCATGGACCGGTTTTCCCGGTAATCCGTATTTGGA (site GGCAGTGCTTC); satisfied
CAATGGTCATGGACCGGTTTTCCCGGTAATCCGTATTTGAA (site CAATGCTCTTT); not satisfied
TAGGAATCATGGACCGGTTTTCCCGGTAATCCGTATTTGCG (site TAGGAATCTCA); satisfied
CCACACACATGGACCGGTTTTCCCGGTAATCCGTATTTGTA (site CCTCACACTTA); not satisfied
ACCTTGACATGGACCGGTTTTCCCGGTAATCCGTATTTGGG (site ACCTTGACTCC); not satisfied
ATAGGCCCATGGACCGGTTTTCCCGGTAATCCGTATTTGAA (site ATAGGCCCTTT); not satisfied

====

# ASSAY_REMARKS: recombinant UMI read abundance after kanamycin selection (control-corrected) (log10(CPM+1)); higher = more efficient recombination; extreme values may be limits of the assay; sequences stand for … in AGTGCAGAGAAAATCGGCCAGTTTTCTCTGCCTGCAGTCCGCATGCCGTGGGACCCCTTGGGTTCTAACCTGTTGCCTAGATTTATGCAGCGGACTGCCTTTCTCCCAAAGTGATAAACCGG…AGGTTGGTTTCACT; site = the 11-nt donor
// values below are reported recombinant UMI read abundance (log10)
READOUT_TYPE: recombinant UMI read abundance (log10)

AGAAAGGCATGGACCGGTTTTCCCGGTAATCCGTATTTGCT (site AGAAAGGCTAA); 0.446
GACCAACCATGGACCGGTTTTCCCGGTAATCCGTATTTGGT (site GACAAACCTAC); 0
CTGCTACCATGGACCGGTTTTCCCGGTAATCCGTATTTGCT (site CTTCTACCTAG); 0
CTGATACCATGGACCGGTTTTCCCGGTAATCCGTATTTGCT (site CTGTTACCTAG); 0
AATGTCACATGGACCGGTTTTCCCGGTAATCCGTATTTGCT (site AATGTAACTAG); 0.799

====

# ASSAY_REMARKS: recombinant barcode read abundance after kanamycin selection (control-corrected) (log10(CPM+1)); higher = more efficient recombination; sequences stand for … in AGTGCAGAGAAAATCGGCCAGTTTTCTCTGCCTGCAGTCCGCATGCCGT…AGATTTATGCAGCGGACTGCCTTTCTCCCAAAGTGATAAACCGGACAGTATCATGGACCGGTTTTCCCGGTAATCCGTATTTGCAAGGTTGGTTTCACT; site = the 11-nt target
READOUT_TYPE: recombinant barcode read abundance (log10)

ACAGGTACTTGGGTTCTAACCTGTTGCCT (site ACAGGTACTAG); 1.18
AAGTGGACTTGGGTTCTAACCTGTTGCCT (site AAGTGGACTAG); 1.93
TTACCCACTTGGGTTCTAACCTGTTGCCT (site TTACCGACTAG); 0.0929
TGTCGAGCTTGGGTTCTAACCTGTTGCCG (site TGTTGAGCTCG); 0.106
GAATGAGCTTGGGTTCTAACCTGTTGCCT (site GAATGAGCTAG); 1.43

====

# ASSAY_REMARKS: recombinant barcode read abundance after kanamycin selection (control-corrected) (log10(CPM+1)); higher = more efficient recombination; sequences stand for … in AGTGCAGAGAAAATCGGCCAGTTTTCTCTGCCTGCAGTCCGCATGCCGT…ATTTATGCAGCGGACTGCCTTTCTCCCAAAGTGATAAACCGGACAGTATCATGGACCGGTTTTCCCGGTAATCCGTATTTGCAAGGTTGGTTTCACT; site = the 11-nt target
Response field class: string, computed from recorded recombinant barcode read abundance (log10) by ranges bucket 1: < 0.1; bucket 2: ≥ 0.1 and < 0.3; bucket 3: ≥ 0.3

GGGCGTGGATGGGTTCTAACCTGTTGCCTTC [GGGCGTGCTAG_LTGcore_GA_RTGcore_GA] (site GGGCGTGCTAG) (LTG core: GA, RTG core: GA); bucket 1
GAGCCCAAGTGGGTTCTAACCTGTTGCCTCT [GAGCCCACTAG_LTGcore_AG_RTGcore_AG] (site GAGCCCACTAG) (LTG core: AG, RTG core: AG); bucket 2
GTCGCCCCTTGGGTTCTAACCTGTTGCTATT [GTCGCCCCTTA_LTGcore_CT_RTGcore_AA] (site GTCGCCCCTTA) (LTG core: CT, RTG core: AA); bucket 2
AGGAGGTAATGGGTTCTAACCTGTTGCCTAG [AGGAGGTCTAG_LTGcore_AA_RTGcore_CT] (site AGGAGGTCTAG) (LTG core: AA, RTG core: CT); bucket 2
TGATACCCTTGGGTTCTAACCTGTTGCGTGT [TGATACCCTAC_LTGcore_CT_RTGcore_AC] (site TGATACCCTAC) (LTG core: CT, RTG core: AC); bucket 1
AGGCCTCCTTGGGTTCTAACCTGTTGCCTTT [AGGCCTCCTAG_LTGcore_CT_RTGcore_AA] (site AGGCCTCCTAG) (LTG core: CT, RTG core: AA); bucket 2
CGAGCCCTCTGGGTTCTAACCTGTTGCTGGA [CGAGCCCCTCA_LTGcore_TC_RTGcore_TC] (site CGAGCCCCTCA) (LTG core: TC, RTG core: TC); bucket 2
GCGGGACCTTGGGTTCTAACCTGTTGCCTTA [GCGGGACCTAG_LTGcore_CT_RTGcore_TA] (site GCGGGACCTAG) (LTG core: CT, RTG core: TA); bucket 3
ATGTCCCCTTGGGTTCTAACCTGTTGCTCAA [ATGTCCCCTGA_LTGcore_CT_RTGcore_TT] (site ATGTCCCCTGA) (LTG core: CT, RTG core: TT); bucket 1
TAGAGGGTATGGGTTCTAACCTGTTGCGGTA [TAGAGGGCTCC_LTGcore_TA_RTGcore_TA] (site TAGAGGGCTCC) (LTG core: TA, RTG core: TA); bucket 3
ATGCTTTATTGGGTTCTAACCTGTTGCCTAT [ATGCTTTCTAG_LTGcore_AT_RTGcore_AT] (site ATGCTTTCTAG) (LTG core: AT, RTG core: AT); bucket 2
GGCTCCCCATGGGTTCTAACCTGTTGCGGAG [GGCTCCCCTCC_LTGcore_CA_RTGcore_CT] (site GGCTCCCCTCC) (LTG core: CA, RTG core: CT); bucket 1
TGATACCCTTGGGTTCTAACCTGTTGCGTGC [TGATACCCTAC_LTGcore_CT_RTGcore_GC] (site TGATACCCTAC) (LTG core: CT, RTG core: GC); bucket 3
AGGCGGGCTTGGGTTCTAACCTGTTGCGGCA [AGGCGGGCTCC_LTGcore_CT_RTGcore_TG] (site AGGCGGGCTCC) (LTG core: CT, RTG core: TG); bucket 1
TCGCGACCTTGGGTTCTAACCTGTTGCCGCC [TCGCGACCTCG_LTGcore_CT_RTGcore_GG] (site TCGCGACCTCG) (LTG core: CT, RTG core: GG); bucket 1
TTATAAAACTGGGTTCTAACCTGTTGCCTAG [TTATAAACTAG_LTGcore_AC_RTGcore_CT] (site TTATAAACTAG) (LTG core: AC, RTG core: CT); bucket 3
ATGTCCCAATGGGTTCTAACCTGTTGCTCAG [ATGTCCCCTGA_LTGcore_AA_RTGcore_CT] (site ATGTCCCCTGA) (LTG core: AA, RTG core: CT); bucket 2
AGGCGGGCTTGGGTTCTAACCTGTTGCGGCT [AGGCGGGCTCC_LTGcore_CT_RTGcore_AG] (site AGGCGGGCTCC) (LTG core: CT, RTG core: AG); bucket 2
AGGCCTCGTTGGGTTCTAACCTGTTGCCTAG [AGGCCTCCTAG_LTGcore_GT_RTGcore_CT] (site AGGCCTCCTAG) (LTG core: GT, RTG core: CT); bucket 2
GAGCCCAGCTGGGTTCTAACCTGTTGCCTAG [GAGCCCACTAG_LTGcore_GC_RTGcore_CT] (site GAGCCCACTAG) (LTG core: GC, RTG core: CT); bucket 2
AGGAGGTAGTGGGTTCTAACCTGTTGCCTAG [AGGAGGTCTAG_LTGcore_AG_RTGcore_CT] (site AGGAGGTCTAG) (LTG core: AG, RTG core: CT); bucket 2

Cited source: the supplement of paper PMC11208160
